The measurements presented in this section are drawn from PubChem BioAssay (NCATS).

target: Glutaminase kidney isoform, mitochondrial (Homo sapiens); test: qHTS for Inhibitors of Glutaminase (GLS): LOPAC Validation (AID 624146); conditions: glutaminase enzyme activity inhibition; series mostly up to 46.1 µM; further: nearly all actives have a fitted effect of over 60% in size
Results filed as inconclusive are left out. Activity calls are given as the source filed them. The call rests on the fitted dose curve; in most records, active means well fitted inhibition curve with a large enough effect; inconclusive means small, poorly fitted or top-dose-only effect; inactive means no such curve, though single readings can be large or run the other way.
Labels: active, inactive

- compound_structure: "Brc1ccc([C@H]2CN3CCSC3=N2)cc1"
  subject_of_test: "Glutaminase kidney isoform, mitochondrial (Homo sapiens)"
  assigned_label: "inactive"
- compound_structure: "Clc1ccc2c(c1)N=C(N1CCNCC1)c1ccccc1N2"
  subject_of_test: "Glutaminase kidney isoform, mitochondrial (Homo sapiens)"
  assigned_label: "inactive"
- compound_structure: "COc1cccc2c1[C@@H]1CN(CCCCn3c(=O)[nH]c4c(sc5ncc(-c6ccccc6)nc54)c3=O)C[C@@H]1CO2"
  subject_of_test: "Glutaminase kidney isoform, mitochondrial (Homo sapiens)"
  assigned_label: "inactive"
- compound_structure: "Nc1ncnc2n[nH]c(Nc3ccc(F)cc3)c12"
  subject_of_test: "Glutaminase kidney isoform, mitochondrial (Homo sapiens)"
  assigned_label: "active"
- compound_structure: "C[N+](C)(C)CCO"
  subject_of_test: "Glutaminase kidney isoform, mitochondrial (Homo sapiens)"
  assigned_label: "inactive"
- compound_structure: "O=[N+]([O-])c1ccc(-c2nc(-c3ccc(F)cc3)c(-c3ccncc3)[nH]2)cc1"
  subject_of_test: "Glutaminase kidney isoform, mitochondrial (Homo sapiens)"
  assigned_label: "inactive"
- compound_structure: "Cc1nn(-c2ccccc2)c(C)c1/C=N/N1CCN(Cc2ccccc2)CC1"
  subject_of_test: "Glutaminase kidney isoform, mitochondrial (Homo sapiens)"
  assigned_label: "inactive"
- compound_structure: "O=C1NC(=O)/C(=C/c2ccc3c(c2)OC(F)(F)O3)S1"
  subject_of_test: "Glutaminase kidney isoform, mitochondrial (Homo sapiens)"
  assigned_label: "inactive"
- compound_structure: "CCN(CC)CCNC(=O)c1ccc(NS(C)(=O)=O)cc1"
  subject_of_test: "Glutaminase kidney isoform, mitochondrial (Homo sapiens)"
  assigned_label: "inactive"

----------
Assay: qHTS of pediatric cancer cell lines to identify multiple opportunities for drug repurposing: Primary screen for BT-37 cells (AID 1347094)
Conditions: BT-37 viability, CellTiter-Glo luminescence, 48 h; series mostly up to 57.3 µM
Experimental: Drug repurposing or repositioning has been offered as a strategy for drug development in oncology programs. This approach has special potential for childhood cancers and other rare or orphan diseases, where the expected return on new drug development has been a disincentive to pharmaceuticals. […] We employed a titration-based paradigm (quantitative high-throughput screening or qHTS), where all compounds were tested at multiple concentrations for their effect on cell viability. […]
Results filed as inconclusive are left out. Calls of active or inactive are those of the source. The call rests on the fitted dose curve; in most records, active means well fitted cell-killing curve with a large enough effect; inconclusive means small, poorly fitted or top-dose-only effect; inactive means flat fitted curve, though single readings scatter. Where a SMILES comes first, the peptide text is derived from it.
Outcome codes: active, inactive

- compound: "Cc1ccccc1N1CCN(CCc2nnc3n2CCCC3)CC1"
  assigned_label: "inactive"
- compound: "OC1(c2ccc(Cl)cc2)CCNCC1"
  assigned_label: "inactive"
- compound: "CC(C)CCCC(C)NCCC(C)C (stereo not drawn)"
  assigned_label: "inactive"
- compound: "Cc1cc2nc3ccc(=[N+](C)C)cc-3sc2cc1N"
  assigned_label: "active"
- compound: "Cc1cccc(C)c1NC(=O)c1cc(S(N)(=O)=O)c(Cl)cc1O"
  assigned_label: "inactive"
- compound: "O=C(O)c1cn(C2CC2)c2cc(Cl)c(F)cc2c1=O"
  assigned_label: "inactive"
- compound: "O=C(CS(=O)Cc1ccco1)NC/C=C\\COc1cc(CN2CCCCC2)ccn1 (stereo not drawn)"
  assigned_label: "inactive"
- compound: "CC(=O)c1ccc(O)c(C(N)=O)c1"
  assigned_label: "inactive"
- compound: "CC(=O)O[C@@H]1CC2C3CCc4cc(OC(=O)c5ccccc5)ccc4C3CCC2(C)[C@H]1OC(C)=O (stereo partly drawn)"
  assigned_label: "inactive"
- compound: "CC(=O)OCC(=O)[C@@]1(O)[C@H](OC(C)=O)C[C@H]2[C@@H]3CCC4=CC(=O)C=C[C@]4(C)[C@@]3(F)[C@@H](O)C[C@@]21C"
  assigned_label: "inactive"
- compound: "CC(=O)[C@H]1CC[C@H]2[C@@H]3C=CC4=CC(=O)CC[C@@]4(C)[C@@H]3CC[C@]12C"
  assigned_label: "inactive"
- compound: "COc1ccc(/C(C)=C/C(=O)O)c(OC)c1"
  assigned_label: "inactive"
- compound: "O=C1NC(c2ccccc2)(c2ccccc2)C(=O)N1COP(=O)(O)O"
  assigned_label: "inactive"
- compound: "O=C(Nc1ccc(S(=O)(=O)N2CCOCC2)cc1)c1cc(Cl)ccc1NS(=O)(=O)c1ccc(Cl)s1"
  assigned_label: "inactive"
- compound: "Cc1ccc(C(=O)C(=O)O)cc1C"
  assigned_label: "inactive"
- compound: "Cc1ccc2ccc(Cl)cc2n1"
  assigned_label: "inactive"
- compound: "NC(=O)COCCN1CCN(C(c2ccccc2)c2ccc(Cl)cc2)CC1 (stereo not drawn)"
  assigned_label: "inactive"
- compound: "O=C1OC2(c3ccccc31)c1cc(I)c(O)c(I)c1Oc1c2cc(I)c(O)c1I"
  assigned_label: "inactive"
- compound: "CC(=O)Nc1c(I)c(NC(C)=O)c(I)c(C(=O)O)c1I"
  assigned_label: "inactive"
- compound: "CC(C)Cc1ccc(C(C)C(=O)OCc2ccccn2)cc1 (stereo not drawn)"
  assigned_label: "inactive"
- compound: "CC(=O)c1cc2ccccc2s1"
  assigned_label: "inactive"
- compound: "CO[C@@H]1[C@@H](OC)[C@H](C)[C@@](O)(CC(=O)O)O[C@H]1[C@H](C)[C@H]1O[C@@]2(CC[C@@](C)([C@H]3CC[C@@](C)([C@@H]4O[C@@H]([C@H]5O[C@](C)(O)[C@H](C)C[C@@H]5C)C[C@@H]4OC4C[C@H](OC)[C@@H](OC)[C@H](C)O4)O3)O2)C[C@H](O)[C@H]1C (stereo partly drawn)"
  assigned_label: "active"
- compound: "O=P(O)(O)OCC(O)CO (stereo not drawn)"
  assigned_label: "inactive"
- compound: "CC(C)C(=O)Nc1cccc(C2CN3CCSC3=N2)c1 (stereo not drawn)"
  assigned_label: "inactive"
- compound: "O=C(O)c1ccc(OCCN2CCCCC2)cc1"
  assigned_label: "inactive"
- compound: "CCCC(CCC)(C(=O)OCC)C(=O)OCC"
  assigned_label: "inactive"
- compound: "CCOC(=O)O[C@]1(C(=O)OCCl)CC[C@H]2[C@@H]3CCC4=CC(=O)C=C[C@]4(C)[C@H]3[C@@H](O)C[C@@]21C"
  assigned_label: "inactive"
- compound: "Cn1cc(S(C)=O)c(=O)c2ccc(F)cc21 (stereo not drawn)"
  assigned_label: "inactive"
- compound: "CC[N+]1(CC)CCC(=C(c2ccccc2)c2ccccc2)C1C (stereo not drawn)"
  assigned_label: "inactive"
- compound: "CO/N=C(\\C(=O)O)c1csc(NC(=O)CCl)n1"
  assigned_label: "inactive"
- compound: "CCCC(=O)OCOC(=O)C1=C(C)NC(C)=C(C(=O)OC)C1c1cccc(Cl)c1Cl (stereo not drawn)"
  assigned_label: "inactive"
- compound: "CC(=O)N[C@@H](CO)C(=O)N[C@@H](CC(=O)O)C(=O)N[C@@H](CCCCN)C(=O)N1CCC[C@H]1C(=O)O (Ac-SDKP-OH)"
  assigned_label: "inactive"
- compound: "CCc1cc2cc(OC)c(OC)cc2c(Cc2ccccc2)n1"
  assigned_label: "inactive"
- compound: "NS(=O)(=O)c1cc2c(cc1Cl)CN(C1CCCCC1)C2=O"
  assigned_label: "inactive"
- compound: "C[C@H]1C[C@H](O)c2ccsc2S1(=O)=O"
  assigned_label: "inactive"
- compound: "CC(C)OC(=O)c1cc2c(OCC(O)CNC(C)(C)C)cccc2[nH]1 (stereo not drawn)"
  assigned_label: "inactive"
- compound: "CC(C)C(=O)OCc1cccc(OC(=O)[C@@H]2N3C(=O)[C@@H](NC(=O)Cc4ccccc4)[C@H]3SC2(C)C)c1"
  assigned_label: "inactive"
- compound: "NC(=O)NS(=O)(=O)c1ccc(Cl)cc1"
  assigned_label: "inactive"
- compound: "Nc1ccc2cc3ccc(N)cc3nc2c1"
  assigned_label: "active"
- compound: "CC(=O)[C@@]1(O)CC[C@H]2[C@@H]3C[C@H](C)C4=CC(=O)CC[C@]4(C)[C@H]3CC[C@@]21C"
  assigned_label: "inactive"
- compound: "O=C(O)[C@@H](O)[C@H](O)[C@H](O)[C@@H](O)C(=O)O"
  assigned_label: "inactive"
- compound: "COCCc1ccccn1"
  assigned_label: "inactive"
- compound: "CN1N=C(C(N)=O)CCC1=O"
  assigned_label: "inactive"

----------
assay: Cell Viability - LYMP2-012 (AID 982); conditions: LYMP2-012 lymphoblastoid cell viability qHTS; series mostly up to 92.2 µM;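 further: cellular ATP by luciferase luminescence where a drop means cytotoxicity; cells exposed to compound for one day before reading; nearly all actives have a fitted effect of over 55% in size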
Records with an inconclusive call do not appear. The source made the active and inactive calls. Calls follow the shape of the dose curve; as a rule, active = well fitted cell-killing curve with a large enough effect; inconclusive = small, poorly fitted or top-dose-only effect; inactive = flat fitted curve, though single readings scatter.
Outcome codes: active, inactive

- molecule: "O=C(NO)c1ccccc1"
  assigned_label: "inactive"
- molecule: "Oc1ccccc1"
  assigned_label: "inactive"
- molecule: "CCCCC(CC)COC(=O)c1ccccc1C(=O)O (stereo not given)"
  assigned_label: "inactive"
- molecule: "COc1cc(C=O)ccc1O"
  assigned_label: "inactive"
- molecule: "O=C(Oc1ccccc1)c1ccccc1O"
  assigned_label: "inactive"
- molecule: "Cc1ccc(O)cc1"
  assigned_label: "inactive"
- molecule: "CC(=O)OC/C=C(C)/C=C/C=C(C)/C=C/C1=C(C)CCCC1(C)C"
  assigned_label: "active"
- molecule: "C1=CC2C3C=CC(C3)C2C1 (stereo not given)"
  assigned_label: "inactive"
- molecule: "CC(C)(C)c1ccc(O)c(O)c1"
  assigned_label: "active"
- molecule: "OCc1c[nH]c2ccccc12"
  assigned_label: "inactive"
- molecule: "CCCCCCCCCCCCCCCC[n+]1ccccc1"
  assigned_label: "active"
- molecule: "Nc1cccc2c(N)cccc12"
  assigned_label: "inactive"
- molecule: "Brc1ccccc1-c1ccccc1"
  assigned_label: "inactive"
- molecule: "Nc1ccc(O)cc1"
  assigned_label: "active"
- molecule: "O=C(c1ccccc1)c1ccccc1"
  assigned_label: "inactive"
